target: Bifunctional epoxide hydrolase 2 (Homo sapiens); experiment: Competitive inhibition of sEH (unknown origin) using varying levels of PHOME as substrate by Dixon plot analysis
value_type: Ki
Field note: include the unit after the figure.

// `COc1cc(O)c2c(=O)c(O[C@@H]3O[C@H](CO)[C@@H](O)[C@H](O)[C@H]3O)c(-c3ccc(O[C@@H]4O[C@H](CO)[C@@H](O)[C@H](O)[C@H]4O)c(OC)c3)oc2c1` : Ki value = 24.6 µM

###

biological target: Bifunctional epoxide hydrolase 2 (Homo sapiens, UniProt P34913); assay: Inhibition of sEH (unknown origin) assessed as reduction in 6-methoxy-2-naphthaldehyde formation using PHOME as substrate measured after 40 mins by fluorescence photometry analysis
Sequence (P34913 whole entry): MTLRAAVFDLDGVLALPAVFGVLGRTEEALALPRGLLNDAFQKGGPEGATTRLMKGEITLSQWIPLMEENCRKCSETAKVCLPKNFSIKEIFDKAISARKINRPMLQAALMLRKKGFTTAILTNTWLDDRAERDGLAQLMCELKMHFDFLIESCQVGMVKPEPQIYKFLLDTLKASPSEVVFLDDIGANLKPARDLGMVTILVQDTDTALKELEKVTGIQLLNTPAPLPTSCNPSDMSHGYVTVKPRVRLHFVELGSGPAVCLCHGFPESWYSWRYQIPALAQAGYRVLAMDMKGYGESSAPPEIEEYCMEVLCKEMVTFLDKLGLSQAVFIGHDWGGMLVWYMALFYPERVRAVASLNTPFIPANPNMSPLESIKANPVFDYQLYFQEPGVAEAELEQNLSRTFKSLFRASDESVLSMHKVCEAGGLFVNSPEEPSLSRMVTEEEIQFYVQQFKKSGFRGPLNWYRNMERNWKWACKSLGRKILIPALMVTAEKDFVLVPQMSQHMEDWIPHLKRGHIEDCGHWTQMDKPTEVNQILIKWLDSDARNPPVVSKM
value_type: IC50 (µM)
Could you give me the number in µM? Just the number is fine.

molecule	assay_system	test_value
C[C@@H]1O[C@@H](Oc2c(-c3ccc(O)c(O)c3)oc3cc(O)cc(O)c3c2=O)[C@H](O)[C@H](O)[C@H]1O [QUERCITRIN]	Bifunctional epoxide hydrolase 2 (Homo sapiens, UniProt P34913)	11.8

Now for another entry.
Bench note, Bifunctional epoxide hydrolase 2 (Homo sapiens, UniProt P34913): entry `COc1cc(-c2oc3cc(O)cc(O)c3c(=O)c2O[C@@H]2O[C@H](CO)[C@@H](O)[C@H](O)[C@H]2O)ccc1O` , its IC50 = 30.1

###

target: Bifunctional epoxide hydrolase 2 (Homo sapiens); assay: Non competitive inhibition of sEH (unknown origin) using varying levels of PHOME as substrate by Dixon plot analysis
Reported values of pKi for individual entries
# reply with the number alone; pKi is -log10 of concentration in mol/L

Some molecules with known pKi results, for comparison:
molecule	pKi
O=C(Oc1c(-c2ccc(O)c(O)c2)oc2cc(O)cc(O)c2c1=O)c1cc(O)c(O)c(O)c1	4.67
C[C@@H]1O[C@@H](Oc2c(-c3ccc(O)c(O)c3)oc3cc(O)cc(O)c3c2=O)[C@H](O)[C@H](O)[C@H]1O [QUERCITRIN]	4.40

// `COc1cc(O)c2c(=O)c(OC)c(-c3ccc(O[C@@H]4O[C@H](CO)[C@@H](O)[C@H](O)[C@H]4O[C@@H]4OC[C@](O)(CO)[C@H]4O)c(OC)c3)oc2c1` : pKi value = 4.74

###

molecular target: Bifunctional epoxide hydrolase 2 (Homo sapiens) (UniProt P34913); test: Inhibition of sEH (unknown origin) assessed as reduction in 6-methoxy-2-naphthaldehyde formation at 100 uM using PHOME as substrate measured after 40 mins by fluorescence photometry analysis relative to control
Class class 1: inhibition at least 90%. Class class 0: inhibition below 90%.

Look over these answered cases.
smiles_str	qualitative_label
COc1cc(-c2oc3cc(O)cc(O)c3c(=O)c2O[C@@H]2O[C@H](CO)[C@@H](O)[C@H](O)[C@H]2O)ccc1O	class 0
COc1cc([C@@H](O)CC(=O)c2c(O)cc(O[C@@H]3O[C@H](CO)[C@@H](O)[C@H](O)[C@H]3O[C@@H]3OC[C@](O)(CO)[C@H]3O)cc2O)ccc1O	class 0

Evaluate `COc1cc(O)c2c(=O)cc(-c3ccc(O[C@@H]4O[C@H](CO)[C@@H](O)[C@H](O)[C@H]4O)c(OC)c3)oc2c1` : inhibition at minimum 90%?
class 1

Evaluate `COc1cc(O)c2c(c1)O[C@H](c1cc(O)c(O[C@@H]3O[C@H](CO)[C@@H](O)[C@H](O)[C@H]3O[C@@H]3OC[C@](O)(CO)[C@H]3O)c(OC)c1)CC2=O` : inhibition at minimum 90%?
class 0

Evaluate `COc1cc(O)c2c(=O)c(O)c(-c3ccc(O[C@@H]4O[C@H](CO)[C@@H](O)[C@H](O)[C@H]4O[C@@H]4OC[C@](O)(CO)[C@H]4O)c(OC)c3)oc2c1` : inhibition at minimum 90%?
class 0
